Tested target: T1, human Complement Factor D (CFD), purified from human serum (human, UniProt P00746 26-253)
T1 construct: serum purified (CompTech A136); also called serum purified CFD; hCFD-Comptech
T1 sequence (P00746 26-253): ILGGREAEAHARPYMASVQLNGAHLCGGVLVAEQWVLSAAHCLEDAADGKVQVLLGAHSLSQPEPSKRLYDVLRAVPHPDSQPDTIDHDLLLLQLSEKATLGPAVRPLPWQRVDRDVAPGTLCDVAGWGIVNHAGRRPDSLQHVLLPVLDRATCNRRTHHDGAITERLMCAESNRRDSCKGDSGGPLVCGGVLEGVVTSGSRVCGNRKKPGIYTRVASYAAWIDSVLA
Method summary: SPR MX96, mAbs amine-coupled, CFD injected
pKd: −log10 of the molar value.
Result type: pKd

{"columns": ["Binder", "Result type", "Quantitative result"],
 "data": [
  ["KCD066 (antibody, V domains shown) VH: QVQLQQSAAELARPGASVKMSCKASGYTFTDYTMHWVKQRPGQGLEWIGYINPSGGYTDYNQKFKDKTALTADKSSSTAYMQLSSLTSEDSAVYYCARRRDYWFAYWGQGTLVTVSA VL: DIVMSQSPSSLAVSVGEKVTMSCKSSQSLLYSGNQKNYLAWYQQKPGQSPKLLIYWASTRESGVPDRFTGSGSGTDFTLTISSVKAEDLAVYYCHQYYSYLTFGAGTKLELK", "pKd", 8.54],
  ["KCD001 (antibody, V domains shown) VH: EVQLQQSGPELVKPGASVKISCKASDNSFTGYYMHWVKQSHGNILDWIGYIDPYNGVSSYNQKFKGKATLTVDKSSSTAYMEIRSLTSEDSAVYYCASYYGSSPYWYFDVWGTGTTVTVSS VL: QIVLSQSPAILSASPGEKVTMTCRASSSVSYMHWYQQKPGSSPKPWIYATSNLASGVPARFSGSGSGTSHFLTISRLEAEDAATYFCQQWSSNPYTFGGGTKLEIK", "pKd", 9.65],
  ["KCD220 (antibody, V domains shown) VH: QVQLQQSGAELMEPGASVKLSCKATGYTFTGYWIEWVKQRPGHGLEWIGETLPGSDSNNYNEKFKGKATFTADTSSNTAYMQLSSLTTEDSAIYYCARDYSNYWYFDVWGTGTTVTVSS VL: DIQMTQTTSSLSASLGDRVTISCRASQDISNYLNWYQQKPDGTVKLLIYYTSNLHSGVPSRFSGSGSGTDYSLTISNLEQEDIATYFCQQDSKHRTFGGGTKLEIK", "pKd", 10.27]
]}
